# Species: Rattus norvegicus
# test-name: Open TG-GATES - Regimen: Daily Repeat
# Type: toxicity, organism-based, Sprague-Dawley
# Design: regimen Daily Repeat, gender Male, age 6 weeks
# measurement-parameters: in vivo, po, 0 mg/kg, […], tissue Plasma, route gavage, dose level Control, time 28 day
Below, each of the compounds is paired with its reported PL value.
readout-kind: PL

INSERT INTO assay_data (compound, observed_result) VALUES
  ('CN1C(=O)CCS(=O)(=O)C1c1ccc(Cl)cc1 (configuration not stated)', '143.6 mg/dL'),
  ('CN/C(=N/CCSCc1nc[nH]c1C)NC#N', '137.4 mg/dL'),
  ('Cc1nnc2n1-c1ccc(Cl)cc1C(c1ccccc1Cl)=NC2', '158.4 mg/dL'),
  ('Nc1c2c(nc3ccccc13)CCCC2', '157.6 mg/dL'),
  ('CN(C)CCC(c1ccc(Cl)cc1)c1ccccn1 (configuration not stated)', '168.4 mg/dL'),
  ('Brc1ccccc1', '157.8 mg/dL'),
  ('CNC(=C[N+](=O)[O-])NCCSCc1ccc(CN(C)C)o1', '132.8 mg/dL');

Cited source for all entries: ChEMBL document CHEMBL3885861
